Please provide measured inhibition in vivo at 70 mg/kg for the entries that follow.
tested on: Mus musculus; assay: Analgesic activity in mouse assessed as inhibition of acetic acid-induced writhing at 70 mg/kg, ig administered 1 hr before acetic acid challenge measured after 15 mins; type: functional; settings: po, route intragastric
Give bare numbers, in %.

Take a look at these entries with their results.
# smiles record, inhibition in vivo at 70 mg/kg, %
data = [
    ("CN(C)CCCO/N=C1/C[C@H]2C(C)(C)O[C@H]3CC(=O)OC[C@]32[C@H]2CC[C@@]3(C)[C@H](c4ccoc4)OC(=O)[C@H]4O[C@]43[C@]12C.Cl", 64.1),
    ("CN(C)CCCO/N=C1/C[C@H]2C(C)(C)O[C@H]3CC(=O)OC[C@]32[C@H]2CC[C@]3(C)C(=CC(=O)O[C@H]3c3ccoc3)[C@]12C.Cl", 60.7),
]

Proceeding to the next compound to report its inhibition in vivo at 70 mg/kg.
Give reported inhibition in vivo at 70 mg/kg value for `CC1(C)O[C@H]2CC(=O)OC[C@]23[C@H]2CC[C@]4(C)C(=CC(=O)O[C@H]4c4ccoc4)[C@]2(C)/C(=N\OCCN2CCOCC2)C[C@@H]13.Cl`
50

Origin of values: ChEMBL document CHEMBL3232842
